ASSAY_OVERVIEW: clinical
PROTOCOL_CONDITIONS: both, human, in vivo
Procedure: A single center, randomized, single and multiple doses, open-label, 2-period, 2-sequence, crossover study was carried out on male and female volunteers. […]
Could you please report measured concentration at 3 h for the items listed next?
One number for each entry, in ng/mL.

In the examples that follow, each entry is paired with its recorded concentration at 3 h.
• COc1ccc2[nH]c([S+]([O-])Cc3ncc(C)c(OC)c3C)nc2c1 (stereo not drawn) = 466
• CC1(C)S[C@@H]2[C@H](NC(=O)[C@H](N)c3ccc(O)cc3)C(=O)N2[C@H]1C(=O)O = 11300

Now let's try a different one.
concentration at 3 h reported for this molecule `CO[C@H]1/C=C/O[C@@]2(C)Oc3c(C)c(O)c4c(c3C2=O)C2=NC3(CCN(CC(C)C)CC3)NC2=C(NC(=O)/C(C)=C\C=C\[C@H](C)[C@H](O)[C@@H](C)[C@@H](O)[C@@H](C)[C@H](OC(C)=O)[C@@H]1C)C4=O` : 72.5

====

ASSAY_OVERVIEW: clinical
PROTOCOL_CONDITIONS: both, human, in vivo
REPORTED_METRIC: concentration at 2 h (ng/mL)
Give bare numbers, in ng/mL.

In the examples that follow, each entry is paired with its recorded concentration at 2 h.
* COc1ccc2[nH]c([S+]([O-])Cc3ncc(C)c(OC)c3C)nc2c1 (stereo not drawn) | 828
* CC1(C)S[C@@H]2[C@H](NC(=O)[C@H](N)c3ccc(O)cc3)C(=O)N2[C@H]1C(=O)O | 14700

concentration at 2 h reported for this compound `CO[C@H]1/C=C/O[C@@]2(C)Oc3c(C)c(O)c4c(c3C2=O)C2=NC3(CCN(CC(C)C)CC3)NC2=C(NC(=O)/C(C)=C\C=C\[C@H](C)[C@H](O)[C@@H](C)[C@@H](O)[C@@H](C)[C@H](OC(C)=O)[C@@H]1C)C4=O` : 66.1

====

ASSAY_OVERVIEW: clinical
PROTOCOL_CONDITIONS: human, in vivo, 50 mg
REPORTED_METRIC: Cmax

Cmax reported for this molecule CO[C@H]1/C=C/O[C@@]2(C)Oc3c(C)c(O)c4c(c3C2=O)C2=NC3(CCN(CC(C)C)CC3)NC2=C(NC(=O)/C(C)=C\C=C\[C@H](C)[C@H](O)[C@@H](C)[C@@H](O)[C@@H](C)[C@H](OC(C)=O)[C@@H]1C)C4=O [Rifabutin] : ~63 ng/mL
